Source listed as ChEMBL document CHEMBL3991601.

# target or system: Serine/threonine-protein kinase N1 (Homo sapiens); note: in the data inactive means no Kd found up to 30 µM
# Sequence (Q16512 whole entry): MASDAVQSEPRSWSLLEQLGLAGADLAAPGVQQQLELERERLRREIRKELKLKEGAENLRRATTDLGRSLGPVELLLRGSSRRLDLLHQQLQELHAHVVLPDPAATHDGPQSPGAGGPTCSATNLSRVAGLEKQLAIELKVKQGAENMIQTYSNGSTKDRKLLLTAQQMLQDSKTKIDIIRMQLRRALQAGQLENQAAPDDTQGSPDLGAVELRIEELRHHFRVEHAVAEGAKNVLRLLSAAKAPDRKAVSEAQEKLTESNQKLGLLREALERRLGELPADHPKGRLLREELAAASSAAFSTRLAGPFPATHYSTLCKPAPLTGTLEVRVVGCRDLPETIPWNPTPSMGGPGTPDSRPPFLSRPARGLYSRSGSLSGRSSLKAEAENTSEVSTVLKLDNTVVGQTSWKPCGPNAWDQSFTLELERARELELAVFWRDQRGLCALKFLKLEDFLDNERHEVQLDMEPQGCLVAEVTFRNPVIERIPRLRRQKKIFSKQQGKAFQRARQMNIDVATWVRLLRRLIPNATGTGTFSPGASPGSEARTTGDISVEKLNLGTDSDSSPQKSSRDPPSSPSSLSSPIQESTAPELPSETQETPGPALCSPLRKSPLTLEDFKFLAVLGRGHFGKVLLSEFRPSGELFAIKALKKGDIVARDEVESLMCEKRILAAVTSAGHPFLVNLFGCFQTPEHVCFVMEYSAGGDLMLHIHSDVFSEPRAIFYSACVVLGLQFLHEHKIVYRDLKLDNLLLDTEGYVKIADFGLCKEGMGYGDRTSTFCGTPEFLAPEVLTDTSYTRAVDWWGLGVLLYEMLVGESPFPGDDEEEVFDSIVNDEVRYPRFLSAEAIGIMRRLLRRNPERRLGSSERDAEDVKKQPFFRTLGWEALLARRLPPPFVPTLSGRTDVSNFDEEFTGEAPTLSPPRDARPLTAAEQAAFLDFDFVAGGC
Activity calls are given as the source filed them.
Answer with one of the outcomes given here: True = active, False = inactive

### Prompt What was the test verdict on CCOc1cc2ncc(C#N)c(Nc3ccc(F)c(Cl)c3)c2cc1NC(=O)/C=C/CN(C)C ?
### Response False

### Prompt GET /call?item= O=c1[nH]ccc2cc(OC3CCNCC3)ccc12 [SAR-407899 FREE BASE] returns the recorded outcome of this test.
### Response True

### Prompt Tell me the recorded outcome of this test for COc1c(OCCCN2CCOCC2)ccc2c1N=C(NC(=O)c1cnc(N)nc1)N1CCN=C21 .
### Response False

### Prompt Could you please tell me the result logged for Cn1cc(-c2cnc3ccc4ccc(CS(=O)(=O)NCc5ccccn5)cc4c(=O)c3c2)cn1 in this assay?
### Response False
